Target: UniProt P49841
Sequence (P49841 whole entry): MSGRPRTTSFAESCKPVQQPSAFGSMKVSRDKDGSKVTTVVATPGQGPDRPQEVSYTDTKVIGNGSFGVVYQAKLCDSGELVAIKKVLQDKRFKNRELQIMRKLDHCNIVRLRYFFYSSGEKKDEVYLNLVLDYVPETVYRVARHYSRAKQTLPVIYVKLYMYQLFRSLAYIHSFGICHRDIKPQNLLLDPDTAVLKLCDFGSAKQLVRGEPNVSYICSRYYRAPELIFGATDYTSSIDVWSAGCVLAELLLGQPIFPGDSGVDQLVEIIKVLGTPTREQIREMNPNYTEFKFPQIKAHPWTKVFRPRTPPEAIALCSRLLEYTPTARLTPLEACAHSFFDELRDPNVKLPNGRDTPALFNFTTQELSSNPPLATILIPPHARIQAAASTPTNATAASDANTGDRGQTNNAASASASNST
Experiment: GSK3b TR-FRET kinase assay
Format: biochemical
Settings: 1 nM GSK3b, 2 μM ATP, 30 minute preincubation; geometric mean; read-out: GSK3-B TR-FRET BIOCHEMICAL (TR-FRET); GMean; IC50
pIC50: −log10 of the molar value.
Catalogue of pIC50 readings, one per entry.

molecule: CCC1(c2cccc(-c3cn(C)nc3C(C)C)c2)C2=C(CC(C)(C)NC2=O)Nc2n[nH]cc21 (stereo not drawn) [Compound 949111]
subject-of-test: UniProt P49841
assay-value: 5.30 to 6.00
//
molecule: CC[C@]1(c2cccc(-c3ccncc3C)c2)C2=C(C[C@@]3(CCCOC3)NC2=O)Nc2n[nH]cc21 [Compound 947910]
subject-of-test: UniProt P49841
assay-value: ≥ 7.00
//
molecule: CCC1(c2cccc(CN(C)C(=O)C(C)C)c2)C2=C(CC(C)(C)CC2=O)Nc2n[nH]cc21 (stereo not drawn) [Compound 865195]
subject-of-test: UniProt P49841
assay-value: < 5.30

Please list pIC50 recorded for the molecule CCC1(c2cccc(-c3ccncc3C)c2)C2=C(CC3(CCCC3)NC2=O)Nc2n[nH]cc21 (stereo not drawn) [Compound 948021]
< 5.30

# return recorded pIC50 for entry CC[C@]1(c2cccc(-c3cnn(C)c3)c2)C2=C(CC(C)(C)NC2=O)Nc2n[nH]c(F)c21 [Compound 949002]
< 5.30

For the molecule CC(C)(C)Cc1[nH]nc2c1C1(CCc3cccc(F)c31)C1=C(CC(C)(C)CC1=O)N2 (stereo not drawn) [Compound 801351] , give its reported pIC50.
6.00 to 7.00

Please indicate pIC50 recorded for CCC1(c2cccc(C)c2)C2=C(CC(C)(C)CC2=O)Nc2n[nH]cc21 (stereo not drawn) [Compound 789560]
6.00 to 7.00

Write down pIC50 measured for item CCC1(c2cccc(-c3ccnc(C)c3)c2)C2=C(CC(C)(C)CC2=O)Nc2n[nH]cc21 (stereo not drawn) [Compound 865170]
< 5.30

Identify measured pIC50 associated with CCC1(c2cccc(-c3cc(C)nnc3C)c2)C2=C(CC(C)(C)NC2=O)Nc2n[nH]c(C(F)(F)F)c21 (stereo not drawn) [Compound 949174]
≥ 7.00

Give the value of pIC50 reported for the following: CC[C@@]1(c2ccccc2)C2=C(C[C@](C)(C(F)(F)F)CC2=O)Nc2n[nH]cc21 [Compound 819568]
6.00 to 7.00

Quote pIC50 reported for CCC1(c2cccc(C(F)(F)F)c2)C2=C(CC(C)CC2=O)Nc2n[nH]cc21 (stereo not drawn) [Compound 810451] please.
≥ 7.00

Please report pIC50 for the following molecule: CCC1(c2cccc(-c3ccncc3C)c2)C2=C(CC3(CCOCC3)NC2=O)Nc2n[nH]cc21 (stereo not drawn) [Compound 948367]
< 5.30

Give reported pIC50 value for CC[C@@]1(c2cccc(S(C)(=O)=O)c2)C2=C(CC(C)(C)NC2=O)Nc2n[nH]c(C(F)(F)F)c21 [Compound 948422]
6.00 to 7.00

# return recorded pIC50 for input CC[C@]1(c2ccccc2)C2=C(CC(C)(C)[C@H](F)C2=O)Nc2n[nH]cc21 [Compound 826767]
< 5.30

Supply recorded pIC50 for CCC1(c2cccc(-c3ccnc(C)c3)c2)C2=C(CC(C)(COC)NC2=O)Nc2n[nH]cc21 (stereo not drawn) [Compound 948493] here.
< 5.30
